- Tested on: CCRF-CEM
- assay_overview: NCI tumour cell line growth inhibition, 48 h
The source made the active and inactive calls. No stated cut-off is given here; in the data, active = GI50 up to about 1.1 µM and inactive = higher.
// allowed return values: active, inactive

compound	assigned_label
C/C(=C\[C@H]1C[C@@H]([C@@H]2CC[C@]34C[C@]23C=C[C@@H]2[C@@]3(C)CC=C5C[C@@H](c6ccccc6)OC[C@]5(C)[C@@H]3C[C@@H](O)[C@]24C)C(=O)O1)CO [DICHAPETALIN A]	active
COc1ccc(OC)c(N2C(=O)CSC2c2cc(OC)c(OC)c(OC)c2)c1 (stereo not given)	inactive
Cc1nn(-c2ccccc2)c2c1C(c1cc3ccccc3nc1Cl)NC(=S)N2 (stereo not given)	inactive
CC(=O)N1C/C(=C\c2ccc(N(C)C)cc2)C(=O)/C(=C/c2ccc(N(C)C)cc2)C1	inactive
CCCCCCCCCCCCOC1C(COCCN2CCCC2)OC2OC(C)(C)OC21 (stereo not given)	inactive
CSCCCN(CCCSC)CCCSC	inactive

Exercise: What did the test return for `O=C(/C(=C\c1ccccc1)CN1CCOCC1)c1ccc(Br)cc1` ?
Solution: active

Exercise: What did the test return for `COc1cc(C2C(C(=O)Nc3ccc([N+](=O)[O-])cc3)=C(C)NC(C)=C2C(=O)Nc2ccc([N+](=O)[O-])cc2)ccc1O` ?
Solution: inactive

Exercise: What did the test return for C[C@]12CCC[C@H](OC=O)C1(O)C[C@H](C(=O)O)CC2 (stereo not given in full) ?
Solution: inactive

Exercise: What did the test return for COC(=O)c1sc2ncc3c(c2c1N)CC(C)CC3 (stereo not given) ?
Solution: inactive

Exercise: What did the test return for `COc1ccc2c(c1)c1cc(OC)ccc1n2CCCCOc1ccc(-c2c3ccccc3c(-c3ccc(OCCCCn4c5ccc(OC)cc5c5cc(OC)ccc54)cc3)c3ccccc23)cc1` ?
Solution: inactive

Exercise: What did the test return for `COc1cc2c(OC)cc1CSCc1sc(C)c(c1Br)CSC2` ?
Solution: inactive

Exercise: What did the test return for O=C1NCC(NC(=O)C(F)(F)F)c2c(Br)sc(Br)c21 (stereo not given) ?
Solution: inactive

Exercise: What did the test return for `Cc1cccc(-c2cc(O)c3c(C)cc(C)nc3n2)c1` ?
Solution: inactive

Exercise: What did the test return for O=[N+]([O-])C(Cl)C(Cl)C(Cl)=C(Cl)Cl (stereo not given) ?
Solution: inactive

Exercise: What did the test return for `COc1ccc(NC(=S)N/N=C/c2c(C)n(C)n(-c3ccccc3)c2=O)cc1` ?
Solution: inactive

Exercise: What did the test return for CC(=O)NC1C(OCc2ccccc2)OC(CO)C(O)C1OCC(=O)N[C@@H](C)C(=O)N[C@H](CCC(=O)NCCCNc1c2ccccc2nc2cccc([N+](=O)[O-])c12)C(N)=O (stereo not given in full) ?
Solution: active

Exercise: What did the test return for `Cc1ccc2[nH]c3[nH]c(=S)[nH]c(=O)c3c2c1` ?
Solution: inactive

Exercise: What did the test return for `C=C(CN(C)C)C(=O)c1cc(C)ccc1C` ?
Solution: active

Exercise: What did the test return for `O=C(CCC(=O)c1ccc(Cl)cc1)NO` ?
Solution: inactive

Taken from ChEMBL document CHEMBL1201862.
